These measurements were taken from patent US5428168A.

Tested on: PAF-induced hypotension in the rat
METHOD NOTES: Reversal of PAF-induced hypotension in anaesthetised rats
Assay type: in vivo, rat (male Sprague-Dawley)
COND: iv, i.v. bolus, PAF 100 ng/kg/min i.v., straight line interpolation, read-out: ED50 (dose to cause 50% reversal of the hypotensive PAF response)
REPORTED METRIC: ED50 (µg/kg)

> print(dat)
                                    compound  reported.metric  units.symbol  op  reported
 1  COc1ccc(C2CCC(OCc3csc(-c4cccnc4)n3)O2)cc1OC (stereo not shown)             ED50         µg/kg   =       120
 2  COc1ccc([C@H]2CC[C@H](OCCCc3cccnc3)O2)cc1OC (relative stereo)             ED50         µg/kg   =        27
 3  Cc1nc2cnccc2n1CCCOC1CCC(c2ccc(F)cc2)O1 (stereo not shown)             ED50         µg/kg   =         1
 4  COc1ccc([C@H]2CC[C@@H](OCCCc3ccc[n+](C)c3)O2)cc1OC (relative stereo) [Comparative Example B, reference compound]             ED50         µg/kg   >      1000
 5  Cc1nc2cnccc2n1CCCOC1CCC(c2ccc(Cl)c(Cl)c2)O1 (stereo not shown)             ED50         µg/kg   =         2
 6  COc1ccc(C2CCC(OCCCCn3c(C)nc4cnccc43)O2)cc1OC (stereo not shown)             ED50         µg/kg   =         3
 7  COc1ccc([C@H]2CC[C@@H](OCCCc3cccnc3)O2)cc1OC (relative stereo)             ED50         µg/kg   =         9
 8  COc1ccc(C2CCC(OCCCn3c(C)nc4cnccc43)O2)cc1Cl (stereo not shown)             ED50         µg/kg   =         2
 9  COc1ccc([C@H]2CC[C@H](OCCCc3ccc[n+](C)c3)O2)cc1OC (relative stereo) [Comparative Example A, reference compound]             ED50         µg/kg   >      1000
10  COc1ccc(C2CCC(OCCCn3c(C)nc4cnccc43)O2)cc1OC (stereo not shown)             ED50         µg/kg   =         1

---

# reported IC50; entries follow
SYSTEM: PAF receptor (Homo sapiens, UniProt P25105)
Construct: Platelet concentrates were obtained from a hospital blood bank
Sequence (P25105 whole entry): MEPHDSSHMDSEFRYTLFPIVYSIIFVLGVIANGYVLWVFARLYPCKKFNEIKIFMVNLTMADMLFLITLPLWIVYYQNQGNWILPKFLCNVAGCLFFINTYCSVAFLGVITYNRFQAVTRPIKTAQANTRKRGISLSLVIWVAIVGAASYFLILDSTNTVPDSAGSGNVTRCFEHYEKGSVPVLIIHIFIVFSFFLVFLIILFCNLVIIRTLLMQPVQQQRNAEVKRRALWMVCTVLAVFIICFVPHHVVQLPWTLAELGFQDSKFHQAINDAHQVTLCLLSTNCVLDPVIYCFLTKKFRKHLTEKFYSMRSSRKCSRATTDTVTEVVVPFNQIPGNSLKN
METHOD NOTES: Inhibition of [3H]-PAF receptor binding to human platelet plasma membrane (isotopic labelling and filtration)
COND: human platelet membranes, 0.5 nM [3H]-PAF, 0° C., 1 hour
REPORTED METRIC: IC50 (nM)

> print(dat)
                                    compound  reported.metric  reported
 1  COc1ccc([C@H]2CC[C@H](OCCCc3ccc[n+](C)c3)O2)cc1OC (relative stereo) [Comparative Example A, reference compound]             IC50      3000
 2  COc1ccc(C2CCC(OCc3csc(-c4cccnc4)n3)O2)cc1OC (centres unmarked) [Example 27]             IC50     10000
 3  COc1ccc([C@H]2CC[C@H](OC/C=C/c3cccnc3)O2)cc1OC (relative stereo) [Example 10A]             IC50      1000
 4  COc1ccc([C@H]2CC[C@@H](OCCCn3c(C)nc4cnccc43)O2)cc1OC (relative stereo) [Example 30A]             IC50        25
 5  Cc1nc2cnccc2n1CCCOC1CCC(c2ccc(Br)cc2)O1 (centres unmarked) [Example 34]             IC50        10
 6  COc1ccc(C2CCC(OCCCn3c(C)nc4cnccc43)O2)cc1OC (centres unmarked) [Example 30]             IC50        15
 7  COc1ccc(C2CCC(OCc3ccc(-n4c(C)nc5ccccc54)cc3)O2)cc1OC (centres unmarked) [Example 23]             IC50       900
 8  COc1ccc(C2CCC(OC(C)CCc3cccnc3)O2)cc1OC (centres unmarked) [Example 12]             IC50      3000
 9  COc1ccc([C@H]2CC[C@H](OCCCCC#Cc3cccnc3)O2)cc1OC (relative stereo) [Example 6A]             IC50      3000
10  COc1ccc([C@H]2CC[C@@H](OCCCCCc3cccnc3)O2)cc1OC (relative stereo) [Example 5B]             IC50      1500
11  COc1ccc(C2CCC(OCCC#Cc3cccnc3)O2)cc1OC (centres unmarked) [Example 2]             IC50      4000
12  COc1ccc(C2CCC(OCCCn3c(C)nnc3C)O2)cc1OC (centres unmarked) [Example 29]             IC50       250
13  COc1ccc(C2CCC(OCCCn3c(C)nc4cnccc43)O2)cc1Cl (centres unmarked) [Example 36]             IC50         3
14  COc1ccc([C@H]2CC[C@H](OCCCC/C=C\c3cccnc3)O2)cc1OC (relative stereo) [Example 7A]             IC50     12000
15  COc1ccc(C2CCC(OCCCC/C=C\c3cccnc3)O2)cc1OC (centres unmarked) [Example 7B]             IC50      2000
16  COc1ccc([C@H]2CC[C@H](OCCCn3c(C)nc4cnccc43)O2)cc1OC (relative stereo) [Example 30B]             IC50         7
17  Cc1nc2cnccc2n1CCCOC1CCC(c2ccc(F)cc2)O1 (centres unmarked) [Example 33]             IC50         7
